What normalized growth was measured for each of the following?
ASSAY_TEXT: chemical genetic growth profiling, strain panel (AID 1159580);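 further: tested at 20 µM; growth read once vehicle control cultures reached saturation at 30 °C; 1 = growth at the plate median or of vehicle wells; lower values mean less growth of the strain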
EXPERIMENTAL_PARAMETERS: S. cerevisiae deletion strains, growth OD, locus YOR290C, strain snf2, active compounds read low
In all, about 5,500 compounds went through this assay and about 2,000 (36%) were called active. Inconclusive results (about 18%) are left out. Some of the results follow.
One number for each entry.

Example cases with answers are listed next.
Field request: normalized growth | item: COc1cc2cc[n+]3cc4c(OC)c(OC)ccc4cc3c2cc1OC
0.946

Field request: normalized growth | item: Nc1nnc(-c2cccc(Cl)c2Cl)c(N)n1
1.04

Field request: normalized growth | item: COC(=O)C1=C(C)NC(C)=C(C(=O)OC)C1c1ccccc1[N+](=O)[O-]
0.958

Field request: normalized growth | item: CCn1cc(C(=O)O)c(=O)c2cc(F)c(N3CCNCC3)cc21
0.974

Alright, here's another molecule for you.
Field request: normalized growth | item: COC(=O)C1=C(C)NC(C)=C(C(=O)OCCN(C)Cc2ccccc2)C1c1cccc([N+](=O)[O-])c1 (stereo not given)
0.975
